- Target Entity: Serine/threonine-protein kinase PLK1 (Homo sapiens) (UniProt P53350)
- Sequence (P53350 whole entry, looked up, the tested form may be a part): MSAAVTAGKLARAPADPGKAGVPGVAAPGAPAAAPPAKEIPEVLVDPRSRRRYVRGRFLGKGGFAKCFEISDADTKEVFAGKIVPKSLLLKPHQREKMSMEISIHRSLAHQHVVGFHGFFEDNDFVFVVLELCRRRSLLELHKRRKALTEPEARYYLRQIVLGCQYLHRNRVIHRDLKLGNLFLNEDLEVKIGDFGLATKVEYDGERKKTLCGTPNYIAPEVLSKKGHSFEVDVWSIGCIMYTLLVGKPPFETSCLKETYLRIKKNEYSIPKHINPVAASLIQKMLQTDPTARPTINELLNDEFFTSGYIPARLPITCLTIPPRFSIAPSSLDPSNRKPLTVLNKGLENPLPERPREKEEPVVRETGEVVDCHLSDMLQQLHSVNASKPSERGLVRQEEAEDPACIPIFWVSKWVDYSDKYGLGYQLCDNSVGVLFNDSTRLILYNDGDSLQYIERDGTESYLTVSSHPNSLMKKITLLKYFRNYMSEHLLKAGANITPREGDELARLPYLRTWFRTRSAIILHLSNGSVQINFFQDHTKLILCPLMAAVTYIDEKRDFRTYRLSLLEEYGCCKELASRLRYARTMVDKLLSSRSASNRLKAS
- Procedure Details: qHTS for Inhibitors of PLK1-PDB (polo-like kinase 1 - polo-box domain): Primary Screen; note: series mostly up to about 57 µM; % is set by controls: 0 for no effect and ±100 for the full control effect; nearly all actives have a fitted effect of over 65% in size
- Protocol Conditions: Plk1 PBD binding of FITC phosphopeptide, fluorescence polarization
Hit rate of the full screen: of about 360,000 compounds, about 10,000 (2.8%) were called active. Roughly 4% stayed inconclusive and do not appear here. The entries come from a sample that favours actives as a whole.
Items are presented alongside their recorded max response, negative = inhibition.
Write it as a number; the unit % goes unstated.

1. COc1ccc(NC2CCCN(C(=O)c3ccccc3-c3ncc[nH]3)C2)cc1 (stereo unspecified) | -9.12
2. COc1cc(C(=S)N2CCOCC2)cc(OC)c1OC(=O)c1ccc([N+](=O)[O-])cc1[N+](=O)[O-] | -24.3
3. Cc1no[n+]([O-])c1COc1ccccc1/C=C1\NC(=S)NC1=O | -11.5
4. CCOC(=O)C1CCN(CC(=O)Nc2ccc(OC)c(S(=O)(=O)N3CCCCC3)c2)CC1 | 3.48
5. O=C(NC1Cc2ccccc2C1)c1cc(COc2cccc(C(F)(F)F)c2)on1 | -5.34

Query: Dear colleague, I am looking for the recorded max response, negative = inhibition of the following compound: COc1ccc(N(C)C(=O)CCS(=O)(=O)c2cccc3nsnc23)cc1
Response: -20.6

Query: Bench note: what max response, negative = inhibition did Nc1ncnc2c1ncn2[C@@H]1O[C@H](C(=O)N2CCSC2)[C@@H](O)[C@H]1O show?
Response: -1.36

Query: # get_value(readout='max response, negative = inhibition', item= O=C(NCCOc1ccccc1)N1[C@H]2CC[C@@H]1C=C(c1ccc(F)cc1OCc1ccccc1)C2 )
Response: -5.72
